Data provenance is patent US11549123B2.

- target: Zea mays (maize) EPSPS, native, SEQ ID NO:1 (Table 10: SEQ ID NO:2) (Zea mays)
- Sequence (O24566 with tags, fused parts or gaps): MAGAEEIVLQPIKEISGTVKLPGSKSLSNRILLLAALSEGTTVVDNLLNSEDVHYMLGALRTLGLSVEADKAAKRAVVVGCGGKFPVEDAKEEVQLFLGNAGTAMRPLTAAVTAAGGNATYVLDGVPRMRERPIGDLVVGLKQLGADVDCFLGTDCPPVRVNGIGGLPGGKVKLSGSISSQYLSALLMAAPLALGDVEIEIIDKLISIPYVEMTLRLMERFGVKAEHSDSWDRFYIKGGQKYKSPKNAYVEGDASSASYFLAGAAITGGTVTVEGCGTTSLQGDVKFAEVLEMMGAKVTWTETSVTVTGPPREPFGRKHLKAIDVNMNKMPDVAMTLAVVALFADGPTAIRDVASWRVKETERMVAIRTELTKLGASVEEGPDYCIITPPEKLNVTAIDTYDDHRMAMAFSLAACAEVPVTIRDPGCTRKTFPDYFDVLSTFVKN

molecule | Ki [nM]
O=C(O)CNCP(=O)(O)O [glyphosate, N-phosphonomethylglycine] | 130

###

- target: Oryza sativa EPSPS with 868-H6 mutations, SEQ ID NO:11 (Oryza sativa, UniProt Q93VK6, A482G/A67R/A69W/D368S/D468G/E457G/G168A/I274L/K149R/L164C/T345A/T427S/T507Q/V137Q/V504R)
- Sequence (Q93VK6 64-511 with the stated changes): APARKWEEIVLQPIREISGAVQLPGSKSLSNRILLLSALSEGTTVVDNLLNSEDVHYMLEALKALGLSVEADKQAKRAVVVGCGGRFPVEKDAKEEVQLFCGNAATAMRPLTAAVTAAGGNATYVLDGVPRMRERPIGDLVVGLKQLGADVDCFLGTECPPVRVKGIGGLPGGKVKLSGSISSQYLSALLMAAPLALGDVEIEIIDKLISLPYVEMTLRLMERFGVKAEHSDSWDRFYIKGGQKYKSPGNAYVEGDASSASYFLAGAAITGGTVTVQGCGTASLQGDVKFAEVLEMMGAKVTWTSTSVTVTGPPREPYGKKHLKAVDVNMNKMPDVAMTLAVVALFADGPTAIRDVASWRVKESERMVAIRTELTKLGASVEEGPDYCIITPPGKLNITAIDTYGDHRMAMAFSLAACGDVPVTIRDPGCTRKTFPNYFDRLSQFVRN
- procedure-text: EPSPS substrate saturation kinetics, rice H6

compound | Ki [µM]
O=C(O)CNCP(=O)(O)O [glyphosate, N-phosphonomethylglycine] | 907

###

- target: Zea mays EPSPS variant Zm-H6 (868-H6) with D196V (H6-D196V) (Zea mays, UniProt O24566, A1R/A3W/A415G/A71Q/D195V/D401G/E301S/E390G/G101A/I207L/K83R/L97C/T278A/T360S/T440Q/V437R)
- Construct: shuffled variant 868-H6 plus D196V; E. coli BL21(DE3), Ni-NTA purified
- Sequence (O24566 with tags, fused parts or gaps A1R/A3W/A71Q/K83R/L97C/G101A/D195V/I207L/T278A/E301S/T360S/E390G/D401G/A415G/V437R/T440Q): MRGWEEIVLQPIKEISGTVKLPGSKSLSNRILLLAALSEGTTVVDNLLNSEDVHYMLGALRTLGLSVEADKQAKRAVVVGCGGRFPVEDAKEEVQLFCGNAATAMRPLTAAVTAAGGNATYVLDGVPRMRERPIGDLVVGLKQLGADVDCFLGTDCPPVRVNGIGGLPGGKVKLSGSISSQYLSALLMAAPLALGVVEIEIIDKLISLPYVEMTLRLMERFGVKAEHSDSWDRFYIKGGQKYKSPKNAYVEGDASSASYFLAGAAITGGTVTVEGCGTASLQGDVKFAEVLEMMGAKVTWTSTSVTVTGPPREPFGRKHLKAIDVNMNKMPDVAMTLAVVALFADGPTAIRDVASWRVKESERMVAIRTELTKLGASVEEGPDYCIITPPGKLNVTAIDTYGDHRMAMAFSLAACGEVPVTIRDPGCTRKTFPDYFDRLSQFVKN
- procedure-text: Substrate saturation kinetic analysis with glyphosate, H6-D196V
pKi: −log10 of the molar value.

compound | pKi
O=C(O)CNCP(=O)(O)O [glyphosate, N-phosphonomethylglycine] | 3.16
